TGT: Plasmodium falciparum calcium-dependent protein kinase 1 (CDPK1) (Plasmodium falciparum)
Construct: 6-Histidine (N); made in house
Sequence (P62344 whole entry): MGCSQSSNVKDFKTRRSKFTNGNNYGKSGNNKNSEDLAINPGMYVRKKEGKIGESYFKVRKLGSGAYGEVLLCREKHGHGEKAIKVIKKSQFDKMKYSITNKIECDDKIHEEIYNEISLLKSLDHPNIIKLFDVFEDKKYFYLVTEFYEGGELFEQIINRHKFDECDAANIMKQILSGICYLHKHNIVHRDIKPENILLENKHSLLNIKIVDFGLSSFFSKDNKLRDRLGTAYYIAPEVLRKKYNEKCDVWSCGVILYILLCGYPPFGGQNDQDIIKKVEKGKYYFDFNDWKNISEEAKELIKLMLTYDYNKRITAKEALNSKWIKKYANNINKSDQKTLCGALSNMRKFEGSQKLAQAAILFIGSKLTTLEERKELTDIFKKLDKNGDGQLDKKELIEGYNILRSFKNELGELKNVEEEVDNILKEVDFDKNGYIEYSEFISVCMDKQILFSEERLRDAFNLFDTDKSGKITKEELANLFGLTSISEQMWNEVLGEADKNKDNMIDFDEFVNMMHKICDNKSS
METHOD: CDPK1 Kinase-Glo ATP-consumption screen and dose-response
Format: biochemical
MEASUREMENT_CONDITIONS: hits below 1 uM; read-out: CDPK1 IC50
pIC50: −log10 of the molar value.
MEASURED_QUANTITY: pIC50

[
  {
    "COMPOUND": "COCCOc1ccc(Nc2nccc(-c3c(-c4cccc(NC(=O)c5c(F)cccc5F)c4)nn4ccccc34)n2)cc1Cl",
    "MEASURED_QUANTITY": "pIC50",
    "RECORDED_MEASUREMENT": 6.82
  },
  {
    "COMPOUND": "Cn1c(Nc2cc(C(C)(C)C)on2)nc2cc(Nc3ccnc(Nc4cccc(CS(C)(=O)=O)c4)n3)ccc21",
    "MEASURED_QUANTITY": "pIC50",
    "RECORDED_MEASUREMENT": 6.94
  },
  {
    "COMPOUND": "Cl.c1ccc(Oc2ccc(Nc3ccnc(Nc4ccc5cn[nH]c5c4)n3)cc2)cc1",
    "MEASURED_QUANTITY": "pIC50",
    "RECORDED_MEASUREMENT": 6.12
  },
  {
    "COMPOUND": "c1ccc(Oc2ccc(Nc3ccnc4cc(-c5ccc(CNCCN6CCOCC6)o5)ccc34)cc2)cc1",
    "MEASURED_QUANTITY": "pIC50",
    "RECORDED_MEASUREMENT": 6.36
  },
  {
    "COMPOUND": "COc1ccc(Nc2ncc(OC)c(Nc3ccccc3C(N)=O)n2)cc1N1CCN(C)CC1.O=CO",
    "MEASURED_QUANTITY": "pIC50",
    "RECORDED_MEASUREMENT": 6.01
  },
  {
    "COMPOUND": "CS(=O)(=O)CCNCc1cccc(-c2ccc3c(Nc4ccc(Oc5cccnc5)cc4)ccnc3c2)c1",
    "MEASURED_QUANTITY": "pIC50",
    "RECORDED_MEASUREMENT": 6.02
  },
  {
    "COMPOUND": "Clc1ccc(-c2cnc3ccc(NCCc4cccnc4)nn23)cc1",
    "MEASURED_QUANTITY": "pIC50",
    "RECORDED_MEASUREMENT": 6.43
  },
  {
    "COMPOUND": "COc1ccc(-c2cnn3ccc(Nc4cc(OC)c(OC)c(OC)c4)nc23)cc1OC",
    "MEASURED_QUANTITY": "pIC50",
    "RECORDED_MEASUREMENT": 6.80
  },
  {
    "COMPOUND": "Cc1ccc(Nc2nc3cc(N(C)c4ccnc(Nc5cccc(CCS(C)(=O)=O)c5)n4)ccc3n2C)cc1.O=C(O)C(F)(F)F",
    "MEASURED_QUANTITY": "pIC50",
    "RECORDED_MEASUREMENT": 6.80
  },
  {
    "COMPOUND": "CN1CCN(c2ccc(Nc3nccc(-c4cnn5ncccc45)n3)cc2Cl)CC1",
    "MEASURED_QUANTITY": "pIC50",
    "RECORDED_MEASUREMENT": 6.63
  },
  {
    "COMPOUND": "CC(C)(CNCc1ccc(Cl)cc1)c1nc(-c2ccc(Cl)c(O)c2)c(-c2ccncc2)[nH]1.Cl",
    "MEASURED_QUANTITY": "pIC50",
    "RECORDED_MEASUREMENT": 6.59
  },
  {
    "COMPOUND": "CN(C(=O)c1cc2c(-c3cncnc3)cccc2[nH]1)c1ccccc1",
    "MEASURED_QUANTITY": "pIC50",
    "RECORDED_MEASUREMENT": 6.57
  },
  {
    "COMPOUND": "CC(C)(CN)c1nc(-c2ccc(Cl)c(O)c2)c(-c2ccnc(N)n2)[nH]1",
    "MEASURED_QUANTITY": "pIC50",
    "RECORDED_MEASUREMENT": 8.13
  },
  {
    "COMPOUND": "CN1CCN(c2ccc(Nc3ncc(Cl)c(Nc4cccnc4C(N)=O)n3)cc2)CC1.Cl",
    "MEASURED_QUANTITY": "pIC50",
    "RECORDED_MEASUREMENT": 7.92
  },
  {
    "COMPOUND": "CNCC(C)(C)c1nc(-c2ccc(Cl)c(O)c2)c(-c2ccncc2)[nH]1.Cl",
    "MEASURED_QUANTITY": "pIC50",
    "RECORDED_MEASUREMENT": 7.31
  },
  {
    "COMPOUND": "COc1cc2nccc(Nc3ccc(Oc4ccccc4)cc3)c2cc1OC.Cl",
    "MEASURED_QUANTITY": "pIC50",
    "RECORDED_MEASUREMENT": 6.84
  },
  {
    "COMPOUND": "c1cncc(Oc2ccc(Nc3ccnc4cc(-c5cccc(CNCCN6CCOCC6)c5)ccc34)cc2)c1",
    "MEASURED_QUANTITY": "pIC50",
    "RECORDED_MEASUREMENT": 6.15
  },
  {
    "COMPOUND": "CS(=O)(=O)CCNCc1cccc(-c2ccc3c(Nc4cc(O)c(Cl)cc4F)ccnc3c2)c1",
    "MEASURED_QUANTITY": "pIC50",
    "RECORDED_MEASUREMENT": 7.15
  },
  {
    "COMPOUND": "CC(c1cccc(Nc2nccc(-c3c(-c4cccc(NC(=O)c5c(F)cccc5F)c4)nn4ccccc34)n2)c1)S(C)(=O)=O (stereo not shown)",
    "MEASURED_QUANTITY": "pIC50",
    "RECORDED_MEASUREMENT": 7.68
  },
  {
    "COMPOUND": "CN(C)Cc1cccc(-c2cc3c(-c4cnn(C)c4)c(Cl)cnc3[nH]2)c1",
    "MEASURED_QUANTITY": "pIC50",
    "RECORDED_MEASUREMENT": 6.40
  },
  {
    "COMPOUND": "CCn1c(-c2nonc2N)nc2c(-c3cccc(Cl)c3)ncc(OCCCNCCc3c[nH]cn3)c21.O=C(O)C(F)(F)F",
    "MEASURED_QUANTITY": "pIC50",
    "RECORDED_MEASUREMENT": 6.86
  },
  {
    "COMPOUND": "Cl.Nc1ncnc2occ(-c3ccc(NC(=O)Nc4cc(C(F)(F)F)ccc4F)cc3)c12",
    "MEASURED_QUANTITY": "pIC50",
    "RECORDED_MEASUREMENT": 6.78
  },
  {
    "COMPOUND": "CCn1c(-c2nonc2N)nc2c(-c3ccc(CO)o3)ncc(OCCCN)c21.O=C(O)C(F)(F)F",
    "MEASURED_QUANTITY": "pIC50",
    "RECORDED_MEASUREMENT": 7.29
  },
  {
    "COMPOUND": "Cl.N#CCc1ccc(Nc2nccc(Nc3ccc(Oc4ccccc4)cc3)n2)cc1",
    "MEASURED_QUANTITY": "pIC50",
    "RECORDED_MEASUREMENT": 6.10
  },
  {
    "COMPOUND": "CC(=O)Nc1cccc(Nc2nccc(-c3c(-c4cccc(NC(=O)c5c(F)cccc5F)c4)nn4ncccc34)n2)c1",
    "MEASURED_QUANTITY": "pIC50",
    "RECORDED_MEASUREMENT": 7.82
  },
  {
    "COMPOUND": "NCC(NC(=O)c1ccc(-c2c[nH]c3ncccc23)s1)c1ccccc1.O=CO (stereo not shown)",
    "MEASURED_QUANTITY": "pIC50",
    "RECORDED_MEASUREMENT": 7.54
  },
  {
    "COMPOUND": "CN1CCN(Cc2cccc(Nc3nccc(Nc4ccc(Oc5ccccc5)cc4)n3)c2)CC1",
    "MEASURED_QUANTITY": "pIC50",
    "RECORDED_MEASUREMENT": 6.10
  },
  {
    "COMPOUND": "CC(C)(CNC(=O)C1CCN(Cc2ccoc2)CC1)c1nc(-c2ccc(Cl)c(O)c2)c(-c2ccncc2)[nH]1.Cl",
    "MEASURED_QUANTITY": "pIC50",
    "RECORDED_MEASUREMENT": 6.37
  },
  {
    "COMPOUND": "CNC(=O)c1ccccc1Nc1nc(Nc2ccc(CCN3CCN(C)CC3)cc2)ncc1Cl.Cl",
    "MEASURED_QUANTITY": "pIC50",
    "RECORDED_MEASUREMENT": 7.33
  },
  {
    "COMPOUND": "Cl.c1ccc(Oc2ccc(Nc3ccnc(Nc4ccc(OCCN5CCCCC5)cc4)n3)cc2)cc1",
    "MEASURED_QUANTITY": "pIC50",
    "RECORDED_MEASUREMENT": 6.15
  },
  {
    "COMPOUND": "Nc1ncc(-c2cn[nH]c2)cc1-c1nc2ccc(F)cc2[nH]1",
    "MEASURED_QUANTITY": "pIC50",
    "RECORDED_MEASUREMENT": 6.82
  }
]
